# Tested on: Atopobium vaginae ATCC BAA 55
# PROTOCOL_SUMMARY: MIC, macro dilution method for bacteria in a solid medium
# Format: cell-based
# CONDITION_SET: Atopobium vaginae ATCC BAA 55; Schaedler agar, anaerobic, 37° C., 7 days
OBSERVATION_TYPE: MIC value (µg/mL)
Write down the numeric answer in µg/mL and omit the unit.

C[C@@H]1[C@H](O)[C@@H](C)/C=C/C=C/CC/C=C/C=C/C=C/C=C/C(O[C@H]2O[C@H](C)[C@@H](O)[C@H](N)[C@@H]2O)CC2O[C@](O)(CC(O)C(O)CCC(O)CC(O)CC(O)CC(=O)O[C@H]1C)CC(O)C2C(=O)O (stereo partly shown): 500

// below: MIC value requested for another molecule
Problem: Give MIC value for O=C1CN(/N=C/c2ccc([N+](=O)[O-])o2)C(=O)N1 [Nitrofurantion, Nitrofurantoin]
Result: 1.95

// data source = patent US12343332B2
